# IC50 per entry
# system: MEK1^CA (human GST-MEK1, constitutively active, Ser218Asp and Ser222Asp) (Homo sapiens, UniProt Q02750, S218D/S222D)
# Construct: GST; made in house; host or cells: Escherichia coli
# Sequence (Q02750 whole entry S218D/S222D): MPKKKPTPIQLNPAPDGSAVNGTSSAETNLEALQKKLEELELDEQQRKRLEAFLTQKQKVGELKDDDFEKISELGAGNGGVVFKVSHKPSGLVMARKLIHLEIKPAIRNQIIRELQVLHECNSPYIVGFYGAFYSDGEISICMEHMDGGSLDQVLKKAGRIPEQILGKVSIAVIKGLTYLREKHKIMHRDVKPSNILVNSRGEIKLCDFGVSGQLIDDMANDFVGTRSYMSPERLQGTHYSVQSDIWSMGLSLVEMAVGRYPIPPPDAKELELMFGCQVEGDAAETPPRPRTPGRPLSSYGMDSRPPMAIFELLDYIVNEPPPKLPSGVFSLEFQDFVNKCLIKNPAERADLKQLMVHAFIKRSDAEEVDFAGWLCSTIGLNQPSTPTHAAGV
# method_summary: MEK1 enzymatic activity assay (MEK1^CA / ERK2 / MBP, [γ-33P]ATP incorporation)
# Type: biochemical
# protocol_conditions: Table 1, compounds of formula I; read-out: Avg IC50

{"columns": ["compound", "IC50"],
 "data": [
  ["CC(C)NC(=N)c1c(O)nsc1Nc1ccc(Oc2ccc(Cl)cc2)cc1", "1 to 100 nM"]
]}

Exam item: Recorded IC50 for `CC(C)NC(=N)c1c(O)nsc1Nc1ccc(Oc2cccc(C(F)(F)F)c2)nc1` , please?
Marked response: 100 to 500 nM

* * *

# pIC50 per entry
# system: MEK1^CA (human GST-MEK1, constitutively active, Ser218Asp and Ser222Asp) (Homo sapiens, UniProt Q02750, S218D/S222D)
# Construct: GST; made in house; host or cells: Escherichia coli
# method_summary: MEK1 enzymatic activity assay (MEK1^CA / ERK2 / MBP, [γ-33P]ATP incorporation)
# Type: biochemical
# protocol_conditions: Table 1, compounds of formula I; read-out: Avg IC50
pIC50: −log10 of the molar value.

{"columns": ["molecule", "pIC50"],
 "data": [
  ["CCC[C@H]1CC[C@H](c2ccc(Nc3snc(O)c3C(=N)NC[C@@H](O)CO)cc2)CC1 [compound 193]", "< 6.30"]
]}

Exam item: Recorded pIC50 for N=C(NCC1CCCCC1)c1c(O)nsc1Nc1ccccc1 [compound 93] , please?
Marked response: < 6.30

Exam item: What do we get for N=C(N[C@@H]1CCC[C@H]1O)c1c(O)nsc1Nc1ccc(Oc2ccccc2)cc1 [compound 155] ?
Marked response: 6.30 to 7.00

Exam item: What do we get for CNC(=N)c1c(O)nsc1Nc1ccc(Oc2ccc(Cl)cc2Cl)cc1 [compound 231] ?
Marked response: 6.30 to 7.00

Exam item: What do we get for CCOC(=O)c1ccccc1Oc1ccc(Nc2snc(O)c2C(=N)NC(C)CO)cc1 (centres unmarked) [compound 494] ?
Marked response: 7.00 to 9.00

Exam item: What do we get for CC(C)C[C@H](CO)NC(=N)c1c(O)nsc1Nc1ccc(Oc2ccccc2)cc1 [compound 163] ?
Marked response: 6.30 to 7.00

Exam item: What do we get for N=C(NCC1CCCCC1)c1c(O)nsc1Nc1ccc(Cc2ccccc2)cc1 [compound 127] ?
Marked response: 6.30 to 7.00

Exam item: What do we get for CC1(C)C2CCC1[C@H](CNC(=N)c1c(O)nsc1Nc1ccc(Oc3ccccc3)cc1)CC2 (some centres unmarked) [compound 46] ?
Marked response: 7.00 to 9.00

* * *

# system: MEK1^CA (human GST-MEK1, constitutively active, Ser218Asp and Ser222Asp) (Homo sapiens, UniProt Q02750, S218D/S222D)
# Construct: GST; made in house; host or cells: Escherichia coli
# method_summary: MEK1 enzymatic activity assay (MEK1^CA / ERK2 / MBP, [γ-33P]ATP incorporation)
# Assay type: biochemical
# protocol_conditions: Table 1, compounds of formula I; read-out: Avg IC50
# From the text: Materials and preparation of reagents: Human GST-MEK1 and the constitutively active allele GST-MEK1^CA (harboring the mutations Ser218Asp and Ser222Asp) were subcloned into the […] expression vector pGEM4Z (Promega, Madison, Wis.) from the wild type human MEK1 cDNA. GST-MEK1^CA was expressed in Escherichia coli and partially purified using Glutathione Sepharose 4B affinity resin (Amersham Pharmacia Biotech, Piscataway, N.J.). […]
# IC50 per entry

Some entries whose results are on file:
{"columns": ["molecule", "IC50"],
 "data": [
  ["N=C(NCC(O)CO)c1c(O)nsc1Nc1ccc(I)cc1 (centres unmarked)", "> 500 nM"],
  ["N=C(NCc1cccc2ccccc12)c1c(O)nsc1Nc1ccccc1", "> 500 nM"],
  ["N=C(NCCO)c1c(O)nsc1Nc1ccc(Oc2ccccc2Cl)cc1", "1 to 100 nM"]
]}

Exam item: Recorded IC50 for `N=C(NCC1CCCCC1)c1c(O)nsc1Nc1ccc(OC(F)F)cc1` , please?
Marked response: > 500 nM

Exam item: What do we get for `N=C(NCC1CCCCC1)c1c(O)nsc1Nc1ccc(C(=O)c2ccccc2)cc1` ?
Marked response: 100 to 500 nM

* * *

# system: MEK1^CA (human GST-MEK1, constitutively active, Ser218Asp and Ser222Asp) (Homo sapiens, UniProt Q02750, S218D/S222D)
# Construct: GST; made in house; host or cells: Escherichia coli
# method_summary: MEK1 enzymatic activity assay (MEK1^CA / ERK2 / MBP, [γ-33P]ATP incorporation)
# Type: biochemical
# protocol_conditions: Table 1, compounds of formula I; read-out: Avg IC50
property_label: IC50

Some entries whose results are on file:
{"columns": ["compound", "IC50"],
 "data": [
  ["Cc1cc(Oc2cccc(F)c2F)ccc1Nc1snc(O)c1C(=N)NC(C)CO (stereo not drawn) [compound 464]", "1 to 100 nM"],
  ["Cc1cc(Oc2cccc(C(F)(F)F)c2)ccc1Nc1snc(O)c1C(=N)NO [compound 471]", "> 500 nM"],
  ["CC(NC(=N)c1c(O)nsc1Nc1ccc(Oc2ccccc2)cc1)c1ccc(F)cc1 (stereo not drawn) [compound 29]", "100 to 500 nM"],
  ["C[C@H](CO)NC(=N)c1c(O)nsc1Nc1ccc(Oc2ccccc2)cc1 [compound 175]", "1 to 100 nM"]
]}

Exam item: Recorded IC50 for Cc1ccc2cc(Nc3snc(O)c3C(=N)NCC3CCCCC3)ccc2n1 [compound 106] , please?
Marked response: > 500 nM

Exam item: What do we get for CC(C)C(CO)NC(=N)c1c(O)nsc1Nc1ccc(Oc2ccccc2)cc1 (stereo not drawn) [compound 179] ?
Marked response: 100 to 500 nM

Exam item: What do we get for CC(C)NC(=N)c1c(O)nsc1Nc1ccc(Oc2ccc(F)cc2F)c(F)c1 [compound 398] ?
Marked response: 100 to 500 nM

Exam item: What do we get for CCOC(=O)c1cccc(Nc2snc(O)c2C(=N)NC(C)CO)c1 (stereo not drawn) [compound 489] ?
Marked response: > 500 nM

Exam item: What do we get for CC(C)N(O)C(=N)c1c(O)nsc1Nc1ccc(Oc2cc(Cl)ccc2Cl)cc1 [compound 455] ?
Marked response: 1 to 100 nM

* * *

# system: MEK1^CA (human GST-MEK1, constitutively active, Ser218Asp and Ser222Asp) (Homo sapiens, UniProt Q02750, S218D/S222D)
# Construct: GST; made in house; host or cells: Escherichia coli
# method_summary: MEK1 enzymatic activity assay (MEK1^CA / ERK2 / MBP, [γ-33P]ATP incorporation)
# Type: biochemical
# protocol_conditions: Table 1, compounds of formula I; read-out: Avg IC50
pIC50: −log10 of the molar value.
property_label: pIC50

Some entries whose results are on file:
{"columns": ["compound", "property_label", "result"],
 "data": [
  ["CCC(CO)NC(=N)c1c(O)nsc1Nc1ccc(Oc2cccc(F)c2F)cc1C (stereo not shown)", "pIC50", "6.30 to 7.00"],
  ["CC(C)CCNC(=N)c1nsc(Nc2ccc(Oc3ccccc3)cc2)c1O", "pIC50", "7.00 to 9.00"],
  ["N=C(NCC(O)O)c1c(O)nsc1Nc1ccc(Oc2ccc(F)cc2)cc1", "pIC50", "< 6.30"],
  ["Cc1ccccc1Oc1ccc(Nc2snc(O)c2C(=N)NC(C)CO)cc1C (stereo not shown)", "pIC50", "< 6.30"],
  ["CC[C@@H](CO)NC(=N)c1c(O)nsc1Nc1ccc(Oc2ccccc2)cc1", "pIC50", "6.30 to 7.00"],
  ["CNC(=N)c1c(O)nsc1Nc1ccc(C)cc1", "pIC50", "6.30 to 7.00"]
]}

Exam item: Recorded pIC50 for CC(CO)NC(=N)c1c(O)nsc1Nc1ccc(Oc2ccc(Br)c3ccccc23)cc1 (stereo not shown) , please?
Marked response: 7.00 to 9.00

Exam item: What do we get for CC(CO)NC(=N)c1c(O)nsc1Nc1ccc(Oc2ccccc2Br)cc1 (stereo not shown) ?
Marked response: 7.00 to 9.00

Exam item: What do we get for `N=C(NCCO)c1c(O)nsc1Nc1ccc(Cc2ccccc2)cc1` ?
Marked response: < 6.30

Exam item: What do we get for `CC(C)NC(=N)c1c(O)nsc1Nc1ccc(Oc2ccc(C(F)(F)F)cc2)c(Cl)c1` ?
Marked response: 6.30 to 7.00

* * *

# pIC50 per entry
# system: MEK1^CA (human GST-MEK1, constitutively active, Ser218Asp and Ser222Asp) (Homo sapiens, UniProt Q02750, S218D/S222D)
# Construct: GST; made in house; host or cells: Escherichia coli
# method_summary: MEK1 enzymatic activity assay (MEK1^CA / ERK2 / MBP, [γ-33P]ATP incorporation)
# Assay type: biochemical
# protocol_conditions: Table 1, compounds of formula I; read-out: Avg IC50
pIC50: −log10 of the molar value.

{"columns": ["compound", "pIC50"],
 "data": [
  ["Cc1ccc(F)c(Oc2ccc(Nc3snc(O)c3C(=N)NC(C)CO)cc2)c1 (stereo not drawn)", "7.00 to 9.00"],
  ["Cc1cc(Nc2snc(O)c2C(=N)NC(C)C)ccc1Oc1ccccc1", "6.30 to 7.00"],
  ["Cn1sc(Nc2ccc(Oc3ccccc3)cc2)c(C(=N)NC2CCCC2)c1=O", "< 6.30"],
  ["N=C(NCC1CCCCC1)c1c(O)nsc1Nc1ccc(Cl)nc1", "< 6.30"],
  ["COc1ccc(-c2ccccc2)cc1Nc1snc(O)c1C(=N)NCC1CCCCC1", "< 6.30"],
  ["CC(C)NC(=N)c1c(O)nsc1Nc1ccc(Oc2cc(Cl)ccc2Cl)c(F)c1", "7.00 to 9.00"],
  ["CC(C)NC(=N)c1c(O)nsc1Nc1ccc(Oc2cc(C(F)(F)F)ccc2F)cc1", "7.00 to 9.00"],
  ["CC(C)NC(=N)c1c(O)nsc1Nc1ccc(Oc2ccc(F)cc2Cl)cc1", "6.30 to 7.00"],
  ["N=C(N[C@@H]1CC2CCC1C2)c1c(O)nsc1Nc1ccc(Oc2ccccc2)cc1 (stereo partly drawn)", "7.00 to 9.00"],
  ["Cc1cccc(Oc2ccc(Nc3snc(O)c3C(=N)NC(C)C)cc2)c1C", "7.00 to 9.00"]
]}

Exam item: Recorded pIC50 for `Cc1cc(Oc2cccc(F)c2F)ccc1Nc1snc(O)c1C(=N)NO` , please?
Marked response: 7.00 to 9.00

Exam item: What do we get for `N=C(NCC1CCCCC1)c1c(O)nsc1NC1CCCCC1` ?
Marked response: < 6.30
